Ref: PubChem BioAssay AID248

Test system: L1210 leukemia ip in BDF1 mice, survival T/C
Experiment: NCI In Vivo Anticancer Drug Screen. Data for tumor model L1210 Leukemia (intraperitoneal) in B6D2F1 (BDF1) mice
Details: endpoint: mean survival time; dose: 100.0 mg/kg/injection; schedule: Q01DX009 (ip); vehicle: Klucel (hydroxypropylcellulose) (HPC); higher = longer survival
Toxic doses and inconclusive results are not listed.
Value Kind: T/C

1) O=C(O)C1CCCN(C(=O)OCc2ccccc2)C1 (centres undefined)    100 % of control
2) CCOC(=O)c1ccc(NC(=O)Oc2cc(C)ccc2C(C)C)cc1    94 % of control
3) CSc1ncc(COC(C)=O)c(N)n1    102 % of control
4) Cc1ccc(NC(=O)c2ccccc2)cc1Cl    98 % of control
5) Cn1nc(N)c2ncc(-c3ccccc3)nc21    92 % of control
6) Nc1cc(=O)[nH]c(S(=O)O)n1    98 % of control
7) CCCCNC(=S)NCCCC    92 % of control
8) CN1C(=O)CCS(=O)(=O)C1c1ccc(Cl)c(Cl)c1 (centres undefined)    110 % of control
9) CCC(=O)OCc1ccc(Cl)cc1    97 % of control
